method-description: Pharmacokinetic determination in SD rats, tail vein injection
Format: in vivo
details: rat, plasma; male SD rats, intravenous, 1 mg/kg
I'd appreciate it if you could supply half-life values for the items below.
Give bare numbers, in h.

>>> df
                                   compound  measure_unit  number
0  CCn1c(NC(=O)c2cnc(N)nc2)nc2c3c(ccc2c1=O)OCCCO3 [14b-3]             h     4.7

# per-item lookup of half-life; items listed below
1. CCn1c(NC(=O)c2cnc(N)nc2)nc2c(OC)c(OCCCC(N)=O)ccc2c1=O [8b-9]
2. COc1c(OCCCN2CCOCC2)ccc2c(=O)n(C)c(NC(=O)c3cnc(N)nc3)nc12 [8a-1]
3. CCn1c(NC(=O)c2cnc(N)nc2)nc2c(OC)c(OCCCN3CCOCC3)ccc2c1=O [8b-1]
4. CCn1c(NC(=O)c2cnc(N)nc2)cc2c3c(ccc2c1=O)OCO3 [14b′-1]

[4.2, 5.3, 5.2, 4.2]

----------
method-description: Pharmacokinetic determination in SD rats, tail vein injection
Format: in vivo
details: rat, plasma; male SD rats, intravenous, 1 mg/kg
measurement-name: Vd (L/kg)
Answers are plain numbers, in L/kg.

Field Vd (entry COc1c(OCCCN2CCOCC2)ccc2c1N=C(NC(=O)c1cnc(N)nc1)N1CCN=C21 [Copanlisib, reference compound] ) reads 33.5

----------
target-entity: PI3Kδ (Homo sapiens)
Sequence (O00329 whole entry): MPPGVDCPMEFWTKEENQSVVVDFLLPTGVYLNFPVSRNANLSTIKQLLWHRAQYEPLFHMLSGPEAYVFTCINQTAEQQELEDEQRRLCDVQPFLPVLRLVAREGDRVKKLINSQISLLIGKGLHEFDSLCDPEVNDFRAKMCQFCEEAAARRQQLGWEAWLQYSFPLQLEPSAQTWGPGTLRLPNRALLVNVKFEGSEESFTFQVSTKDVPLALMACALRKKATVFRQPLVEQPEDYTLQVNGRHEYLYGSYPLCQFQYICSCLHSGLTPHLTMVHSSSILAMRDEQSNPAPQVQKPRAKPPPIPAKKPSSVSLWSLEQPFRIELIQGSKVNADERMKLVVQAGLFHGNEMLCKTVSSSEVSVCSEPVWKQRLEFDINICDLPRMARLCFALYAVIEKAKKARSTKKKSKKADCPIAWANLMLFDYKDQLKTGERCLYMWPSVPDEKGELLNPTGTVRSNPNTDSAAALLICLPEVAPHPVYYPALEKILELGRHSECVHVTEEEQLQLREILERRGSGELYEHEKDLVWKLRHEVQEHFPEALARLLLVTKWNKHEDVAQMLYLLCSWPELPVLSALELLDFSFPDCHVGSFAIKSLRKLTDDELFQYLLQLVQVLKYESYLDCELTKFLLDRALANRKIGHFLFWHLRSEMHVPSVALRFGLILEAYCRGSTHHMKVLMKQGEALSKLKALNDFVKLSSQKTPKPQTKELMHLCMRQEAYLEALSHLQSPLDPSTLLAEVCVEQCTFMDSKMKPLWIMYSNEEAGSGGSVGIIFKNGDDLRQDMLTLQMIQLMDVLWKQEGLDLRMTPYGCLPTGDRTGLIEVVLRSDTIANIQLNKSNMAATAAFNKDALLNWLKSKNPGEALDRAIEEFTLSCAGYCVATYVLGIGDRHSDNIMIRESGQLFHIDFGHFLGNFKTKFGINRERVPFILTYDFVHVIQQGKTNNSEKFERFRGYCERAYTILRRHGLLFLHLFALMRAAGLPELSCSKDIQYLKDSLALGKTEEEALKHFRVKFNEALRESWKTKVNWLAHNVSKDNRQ
Sequence (P27986 whole entry partner): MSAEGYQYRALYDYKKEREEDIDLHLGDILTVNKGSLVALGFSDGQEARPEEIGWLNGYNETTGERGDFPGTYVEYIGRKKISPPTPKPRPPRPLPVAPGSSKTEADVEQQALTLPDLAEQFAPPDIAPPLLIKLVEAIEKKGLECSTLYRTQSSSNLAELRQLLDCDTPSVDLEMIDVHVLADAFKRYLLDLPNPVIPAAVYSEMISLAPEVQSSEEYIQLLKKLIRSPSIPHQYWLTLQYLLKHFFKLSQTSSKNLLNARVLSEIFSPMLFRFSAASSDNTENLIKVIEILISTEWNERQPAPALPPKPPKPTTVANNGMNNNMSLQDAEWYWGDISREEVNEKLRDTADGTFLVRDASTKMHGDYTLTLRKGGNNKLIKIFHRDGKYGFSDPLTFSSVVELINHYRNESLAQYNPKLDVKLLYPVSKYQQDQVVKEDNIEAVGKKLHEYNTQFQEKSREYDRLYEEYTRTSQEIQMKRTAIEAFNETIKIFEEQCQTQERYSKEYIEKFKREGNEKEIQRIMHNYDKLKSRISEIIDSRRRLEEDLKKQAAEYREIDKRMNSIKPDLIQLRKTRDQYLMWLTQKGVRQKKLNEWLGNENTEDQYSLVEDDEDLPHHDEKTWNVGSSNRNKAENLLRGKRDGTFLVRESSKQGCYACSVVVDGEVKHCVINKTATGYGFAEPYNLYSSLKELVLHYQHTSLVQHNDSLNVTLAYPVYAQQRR
method-description: PI3Kδ molecular activity test (ADP-GLO)
details: recombinant protein
measurement-name: IC50

>>> df
                                   compound  measurement_name        result
0  Cn1c(NC(=O)c2cnc(N)nc2)nc2c3c(ccc2c1=O)OCCCCCO3 [14a-5]              IC50  20 to 200 nM

# per-item lookup of IC50; items listed below
1. COc1c(OCCC(N)=O)ccc2c(=O)n(C(C)C)c(NC(=O)c3cnc(N)nc3)nc12
2. CCn1c(NC(=O)c2cnc(N)nc2)nc2c3c(ccc2c1=O)OCCCCCCCCO3 [14b-8]
3. CCn1c(NC(=O)c2cnc(N)nc2)cc2c3c(ccc2c1=O)OCCCCO3 [14b′-4]
4. COc1c(OCCCN2CCOCC2)ccc2c(=O)n(C)c(NC(=O)c3ccnnc3)nc12
5. COc1c(OCC(=O)N2CCOCC2)ccc2c(=O)n(C)c(NC(=O)c3cnc(N)nc3)nc12
6. CCn1c(NC(=O)c2cnc(N)nc2)nc2c(OC)c(OC[C@@H](O)CN3CCOCC3)ccc2c1=O

1: 20 to 200 nM; 2: < 20 nM; 3: 20 to 200 nM; 4: 20 to 200 nM; 5: 20 to 200 nM; 6: 200 to 1000 nM

# per-item lookup of IC50; items listed below
1. Cn1c(NC(=O)c2cnc(N)nc2)nc2c3c(ccc2c1=O)OCCCCO3 [14a-4]
2. CCn1c(NC(=O)c2cnc(N)nc2)nc2c3c(ccc2c1=O)OCCOCCOCCOCCO3 [14b-11]
3. COc1c(OCCCN2CCOCC2)ccc2c(=O)n(C)c(NC(=O)c3ccnnc3)cc12

["< 20 nM", "20 to 200 nM", "20 to 200 nM"]

# per-item lookup of IC50; items listed below
1. CCn1c(NC(=O)c2cnc(N)nc2)nc2c(OC)c(OCC(N)=O)ccc2c1=O
2. COc1c(OCCCN2CCOCC2)ccc2c(=O)n(C)c(NC(=O)c3cncnc3)nc12
3. Cn1c(NC(=O)c2cnc(N)nc2)cc2c3c(ccc2c1=O)OCCOCCOCCOCCO3 [14a′-7]
4. CCn1c(NC(=O)c2cnc(N)nc2)nc2c(OC)c(O)ccc2c1=O
5. Cn1c(NC(=O)c2cnc(N)nc2)cc2c3c(ccc2c1=O)OCCOCCOCCO3 [14a′-6]

1. 20 to 200 nM
2. 20 to 200 nM
3. 20 to 200 nM
4. 20 to 200 nM
5. 20 to 200 nM

# per-item lookup of IC50; items listed below
1. CCn1c(NC(=O)c2cnc(N)nc2)nc2c(OC)c(OCCS(N)(=O)=O)ccc2c1=O
2. COc1c(OC[C@H](O)CN2CCOCC2)ccc2c(=O)n(C)c(NC(=O)c3ccc(N)nc3)nc12
3. CNC(=O)COc1ccc2c(=O)n(C)c(NC(=O)c3cnc(N)nc3)nc2c1OC
4. CCn1c(NC(=O)c2cnc(N)nc2)cc2c(OC)c(OCCC(N)=O)ccc2c1=O

< 20 nM
20 to 200 nM
20 to 200 nM
20 to 200 nM

# per-item lookup of IC50; items listed below
1. CCOC(=O)COc1ccc2c(=O)n(C)c(NC(=O)c3cnc(N)nc3)nc2c1OC
2. COc1c(OCC(N)=O)ccc2c(=O)n(C3CC3)c(NC(=O)c3cnc(N)nc3)nc12
3. CCn1c(NC(=O)c2cnc(N)nc2)nc2c(OC)c(OCC(C)NS(C)(=O)=O)ccc2c1=O (stereo not drawn)
4. CCn1c(NC(=O)c2cnc(N)nc2)cc2c(OC)c(OCC(N)=O)ccc2c1=O
5. CCn1c(NC(=O)c2cnc(N)nc2)nc2c(OC)c(OCCC(N)=O)ccc2c1=O
6. COc1c(OCC(=O)N(C)C)ccc2c(=O)n(C)c(NC(=O)c3cnc(N)nc3)nc12
7. COc1c(O)ccc2c(=O)n(CC(F)F)c(NC(=O)c3cnc(N)nc3)nc12
8. Cn1c(NC(=O)c2cnc(N)nc2)nc2c3c(ccc2c1=O)OCCCCCCCO3 [14a-7]

200 to 1000 nM
20 to 200 nM
200 to 1000 nM
20 to 200 nM
20 to 200 nM
20 to 200 nM
20 to 200 nM
20 to 200 nM

# per-item lookup of IC50; items listed below
1. CCn1c(NC(=O)c2cnc(N)nc2)cc2c3c(ccc2c1=O)OCCO3 [14b′-2]
2. CCn1c(NC(=O)c2cnc(N)nc2)nc2c(OC)c(OCCNS(C)(=O)=O)ccc2c1=O
3. CCn1c(NC(=O)c2cncnc2)nc2c(OC)c(OCCCN3CCOCC3)ccc2c1=O

["< 20 nM", "200 to 1000 nM", "< 20 nM"]

# per-item lookup of IC50; items listed below
1. Cn1c(NC(=O)c2cnc(N)nc2)nc2c3c(ccc2c1=O)OCCCCCCCCO3 [14a-8]
2. CCn1c(NC(=O)c2cnc(N)nc2)cc2c3c(ccc2c1=O)OCCOCCOCCO3 [14b′-6]
3. COc1c(OCC(N)=O)ccc2c(=O)n(C(C)C)c(NC(=O)c3cnc(N)nc3)nc12

< 20 nM
< 20 nM
20 to 200 nM

# per-item lookup of IC50; items listed below
1. COc1c(OC[C@@H](O)CN2CCOCC2)ccc2c(=O)n(C)c(NC(=O)c3cnc(N)nc3)nc12
2. COc1c(OCCCN2CCOCC2)ccc2c(=O)n(C)c(NC(=O)c3cnc(N)nc3)nc12
3. Cn1c(NC(=O)c2cnc(N)nc2)nc2c3c(ccc2c1=O)OCCCCCCO3 [14a-6]

1: 20 to 200 nM; 2: < 20 nM; 3: 20 to 200 nM

----------
target-entity: PI3Kα (Homo sapiens, UniProt P42336)
Sequence (P42336 whole entry): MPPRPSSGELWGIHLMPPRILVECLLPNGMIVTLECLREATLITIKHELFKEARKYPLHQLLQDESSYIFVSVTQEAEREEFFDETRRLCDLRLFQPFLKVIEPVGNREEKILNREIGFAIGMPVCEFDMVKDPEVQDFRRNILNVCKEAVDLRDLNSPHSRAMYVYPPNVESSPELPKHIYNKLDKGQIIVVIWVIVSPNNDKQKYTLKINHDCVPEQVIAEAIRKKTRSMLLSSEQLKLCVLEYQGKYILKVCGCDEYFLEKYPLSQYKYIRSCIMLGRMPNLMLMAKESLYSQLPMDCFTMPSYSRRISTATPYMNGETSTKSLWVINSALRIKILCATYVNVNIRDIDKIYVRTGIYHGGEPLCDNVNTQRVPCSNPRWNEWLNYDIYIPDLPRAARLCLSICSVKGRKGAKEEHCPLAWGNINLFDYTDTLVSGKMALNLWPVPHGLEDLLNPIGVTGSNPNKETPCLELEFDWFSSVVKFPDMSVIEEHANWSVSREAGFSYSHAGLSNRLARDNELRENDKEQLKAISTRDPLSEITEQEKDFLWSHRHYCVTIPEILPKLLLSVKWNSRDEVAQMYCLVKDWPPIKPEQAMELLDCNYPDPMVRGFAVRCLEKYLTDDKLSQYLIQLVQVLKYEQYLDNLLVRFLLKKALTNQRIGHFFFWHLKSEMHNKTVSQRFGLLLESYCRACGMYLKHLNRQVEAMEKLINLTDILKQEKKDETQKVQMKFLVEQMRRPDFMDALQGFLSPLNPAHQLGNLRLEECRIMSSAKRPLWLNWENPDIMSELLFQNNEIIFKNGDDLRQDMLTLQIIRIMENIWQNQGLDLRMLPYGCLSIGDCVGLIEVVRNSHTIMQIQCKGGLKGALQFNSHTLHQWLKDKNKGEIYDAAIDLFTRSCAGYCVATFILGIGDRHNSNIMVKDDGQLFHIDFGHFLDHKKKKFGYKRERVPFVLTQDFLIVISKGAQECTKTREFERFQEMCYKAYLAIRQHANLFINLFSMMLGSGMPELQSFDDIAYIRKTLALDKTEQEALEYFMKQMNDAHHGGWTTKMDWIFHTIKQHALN
Sequence (P27986 whole entry partner): as the sequence (P27986 whole entry partner) above
method-description: PI3Kα molecular activity test (ADP-GLO)
details: recombinant protein, 100 μM ATP, 2 hours at room temperature
pIC50: −log10 of the molar value.
I'd appreciate it if you could supply pIC50 values for the items below.

Here are 5 compounds together with their reported answers.
In [3]: df
Out[3]:
                                   compound        result
0  CCn1c(NC(=O)c2cnc(N)nc2)nc2c(OC)c(OCCNS(C)(=O)=O)ccc2c1=O [8b-29]        > 7.70
1  COc1c(O)ccc2c(=O)n(CC(F)F)c(NC(=O)c3cnc(N)nc3)nc12 [7f]  6.70 to 7.70
2  CCn1c(NC(=O)c2ccc(N)nc2)nc2c(OC)c(OC[C@@H](O)CN3CCOCC3)ccc2c1=O [8b-46]        > 7.70
3  Cn1c(NC(=O)c2cnc(N)nc2)nc2c3c(ccc2c1=O)OCCCCCO3 [14a-5]        > 7.70
4  Cn1c(NC(=O)c2cnc(N)nc2)nc2c3c(ccc2c1=O)OCCCCCCO3 [14a-6]        > 7.70

# per-item lookup of pIC50; items listed below
1. Cn1c(NC(=O)c2cnc(N)nc2)nc2c3c(ccc2c1=O)OCCCCCCCO3 [14a-7]
2. CCn1c(NC(=O)c2cnc(N)nc2)nc2c3c(ccc2c1=O)OCCOCCOCCOCCO3 [14b-11]
3. COc1c(O)ccc2c(=O)n(C)c(NC(=O)c3cnc(N)nc3)nc12 [7a]
4. Cn1c(NC(=O)c2cnc(N)nc2)cc2c3c(ccc2c1=O)OCCCCO3 [14a′-4]
5. CNC(=O)COc1ccc2c(=O)n(C)c(NC(=O)c3cnc(N)nc3)nc2c1OC [8a-4]
6. CCn1c(NC(=O)c2cnc(N)nc2)nc2c(OC)c(OCCC(N)=O)ccc2c1=O [8b-3]
7. CCn1c(NC(=O)c2cnc(N)nc2)nc2c3c(ccc2c1=O)OCCCCO3 [14b-4]

["> 7.70", "6.70 to 7.70", "> 7.70", "> 7.70", "> 7.70", "> 7.70", "6.70 to 7.70"]

# per-item lookup of pIC50; items listed below
1. CCn1c(NC(=O)c2cnc(N)nc2)cc2c(OC)c(OCC(N)=O)ccc2c1=O [8b′-2]
2. COc1c(OCCC(N)=O)ccc2c(=O)n(C(C)C)c(NC(=O)c3cnc(N)nc3)nc12 [8c-3]
3. CCn1c(NC(=O)c2cnc(N)nc2)nc2c3c(ccc2c1=O)OCCCCCCCCO3 [14b-8]
4. COc1c(OCCCN2CCOCC2)ccc2c(=O)n(C)c(NC(=O)c3ccc(N)nc3)nc12 [8a-16]
5. CCn1c(NC(=O)c2cnc(N)nc2)cc2c(OC)c(OCCCN3CCOCC3)ccc2c1=O [8b′-1]

1: > 7.70; 2: 6.70 to 7.70; 3: > 7.70; 4: > 7.70; 5: > 7.70

// assay PI3Kα (Homo sapiens, UniProt P42336), entry COc1c(OCCCN2CCOCC2)ccc2c(=O)n(C)c(NC(=O)c3cnc(N)nc3)nc12 [8a-1] , pIC50 value = > 7.70
